meta.source: PubChem BioAssay (NCI)

System: COLO 205 colon
Assay: NCI-60 one-dose screen, 48 h (100 = growth as untreated, 0 = no growth, -100 = all killed)
Conditions: 10 µM unless noted
The panel holds about 83,000 compounds, 20% with a hit somewhere; the sample as a whole holds those more often.
Experimental Readout: growth (%)

[[record]]
smiles_code = "CSc1ccccc1C#C/C=C\\C#Cc1ccccc1N1CCCC1=O"
experimental_readout = "growth"
unit_info = "%"
result_value = 65.2

[[record]]
smiles_code = "NC(=O)NNC(=O)c1ccccc1"
experimental_readout = "growth"
unit_info = "%"
result_value = 118

[[record]]
smiles_code = "Cc1cc2c(C(C)C)c(O)c(O)c(C=NCCCCC(=O)O)c2c(O)c1-c1c(C)cc2c(C(C)C)c(O)c(O)c(C=NCCCCC(=O)O)c2c1O"
experimental_readout = "growth"
unit_info = "%"
result_value = 41.1

[[record]]
smiles_code = "CCSc1nnc(NC(=O)COc2ccc(Cl)cc2C)s1"
experimental_readout = "growth"
unit_info = "%"
result_value = 93.9

[[record]]
smiles_code = "Clc1cccc(Cl)c1Cn1c(-c2cncs2)nc2ccccc21"
experimental_readout = "growth"
unit_info = "%"
result_value = 99.5

[[record]]
smiles_code = "CCCCCC(=O)OCc1ccccc1"
experimental_readout = "growth"
unit_info = "%"
result_value = 106


----------
Tested on: A498 renal
Assay: NCI-60 one-dose screen, 48 h (100 = growth as untreated, 0 = no growth, -100 = all killed)
Details: 10 µM unless noted
Compounds without any hit were thinned out: in the full panel of roughly 83,000, 20% have a hit.
Each entry falls into one class according to its growth; the ranges are bottom end (below 60%), midrange (60% to below 80%), top end (80% or more)

[[record]]
compound = "Nc1cccc2c1CN(C1CCC(=O)NC1=O)C2=O (centres undefined)"
study_system = "A498 renal"
group = "top end"

[[record]]
compound = "Nc1ccc(S(=O)(=O)c2ccc(Cl)cc2)cc1"
study_system = "A498 renal"
group = "top end"

[[record]]
compound = "CC/C(=C(\\c1ccc(O)cc1)c1ccc(OCCN(C)CCN(C)C(=O)CCC(=O)c2c(C)[nH]c(/C=C3\\N=C(c4ccc[nH]4)C=C3OC)c2C)cc1)c1ccccc1"
study_system = "A498 renal"
group = "midrange"

[[record]]
compound = "Cc1cc(-c2ccccc2)c(C)n1Cc1ccc(Cl)cc1"
study_system = "A498 renal"
group = "bottom end"

[[record]]
compound = "CCCCNc1nnc(-c2cc(-c3cc4ccccc4o3)nn2-c2ccccc2)o1"
study_system = "A498 renal"
group = "top end"

[[record]]
compound = "COC(=O)c1ccc2nc(-c3cc4ccccc4n3C)n(CCCCOc3cc4c(cc3OC)C(=O)N3CCC[C@H]3C=N4)c2c1"
study_system = "A498 renal"
group = "bottom end"

[[record]]
compound = "COc1cc(-n2nc(C(=O)Nc3ccc(C(=O)O)cc3)nc2-c2ccccc2)cc(OC)c1OC"
study_system = "A498 renal"
group = "midrange"


----------
System: HCT-15 colon
Assay: NCI-60 one-dose screen, 48 h
Details: 10 µM unless noted
Method: Growth inhibition of the HCT-15 human tumor cell line is measured as a screen for anti-cancer activity. Cells are grown in 96 well plates and exposed to the test compound for 48 hours. Compounds are tested at a single concentration, which is 10^-5 M for most compounds. The reported endpoint is percent growth (GI% or GIPRCNT), where numbers from 0 - 100% represent growth inhibition, and numbers from -100% - 0 represent cell death. For example, a value of 40 represents 60% growth inhibition. […]
The panel holds about 83,000 compounds, 20% with a hit somewhere; the sample as a whole holds those more often. The source made the active and inactive calls. How the source made its calls: active means growth percent below 10; inactive means the rest.
Labels: active, inactive

[[record]]
compound = "O=S(=O)(NCCCNc1cc(-c2cn(-c3ccccc3)nc2-c2cccc(O)c2)ccn1)c1cccc(F)c1"
group = "active"

[[record]]
compound = "CC/C=C\\C/C=C\\C[C@H]1C/C=C2/C(=O)C=C[C@H]2C/C=C\\CCC(=O)O1"
group = "active"

[[record]]
compound = "O=C(CCCn1c(=O)c2sc3ccccc3c2n2nnc(-c3ccccc3)c12)NCCc1cnc[nH]1"
group = "active"

[[record]]
compound = "CCC(c1ccc(OC)cc1)C(CC)c1ccc(OCC[N+](C)(C)C)cc1 (configuration not stated)"
group = "inactive"

[[record]]
compound = "COc1cc(CCn2nnc3c(NCCCCO)ncnc32)cc(OC)c1"
group = "inactive"

[[record]]
compound = "COc1cc(NCCCN=C(N)NC(N)=NC(C)C)c2ncccc2c1"
group = "inactive"

[[record]]
compound = "O=C(/C=C/CN1CCCCC1)Nc1cc2c(Nc3ccc(F)c(Cl)c3F)ncnc2cc1OCCOC(F)F"
group = "active"

[[record]]
compound = "CCc1c(C(=O)Nc2ccc3ccccc3c2)[nH]c(C)c1C(C)=O"
group = "inactive"

[[record]]
compound = "NC(=O)c1c(NC(=O)c2ccc(OCC3CCCO3)cc2)sc2c1CCCC2 (configuration not stated)"
group = "inactive"

[[record]]
compound = "C=C1C(=O)O[C@H]2[C@H]1CC/C(Cn1cc(-c3ccsc3)nn1)=C\\CC[C@@]1(C)O[C@@H]21"
group = "active"

[[record]]
compound = "CCn1cc(C(=O)O)c(=O)c2cc(F)c(N3CCN(S(=O)(=O)c4ccc(OC)c(OC)c4)CC3)cc21"
group = "inactive"

[[record]]
compound = "CC(C(=O)n1cc(-c2ccccc2)c(-c2ccccc2)c1)c1ccccc1 (configuration not stated)"
group = "inactive"

[[record]]
compound = "CCOP(=O)(CCN1CCN(CCCCCOc2cc3c(cc2OC)C(=O)N2CCC[C@H]2C=N3)CC1)OCC"
group = "inactive"

[[record]]
compound = "Cc1ccc(S(=O)(=O)NCCCNc2nccc(-c3c(-c4ccccc4)nc4sccn34)n2)cc1"
group = "inactive"

[[record]]
compound = "C=CC(=O)N[C@H](/C=C/C(=O)OCC)Cc1ccc(-c2cc(Cl)cc(Cl)c2)cc1"
group = "inactive"

[[record]]
compound = "CCN(CC)CCC(=O)c1cccc2ccccc12"
group = "inactive"

[[record]]
compound = "N#Cc1ccc(NC(=O)c2ccc3cccnc3c2O)cc1"
group = "inactive"

[[record]]
compound = "COc1ccc(C(=O)c2cc(OC)c(OC)c(OC)c2)cc1/C=C/C(=O)c1ccc(O)cc1"
group = "active"

[[record]]
compound = "CN1C(=O)[C@H]2c3c1cccc3[C@@]13NC(=O)O[C@H]1[C@H](CCC3(C)C)C2(C)C"
group = "inactive"

[[record]]
compound = "N#Cc1ncc(-c2ccc(F)c(F)c2F)c(NC2CCCCCC2)n1"
group = "inactive"

[[record]]
compound = "O=C(Nc1ccc(F)cc1)c1cc([N+](=O)[O-])ccc1O"
group = "inactive"

[[record]]
compound = "O=C(Cc1c(F)cccc1Cl)Nc1ccc(S(=O)(=O)Nc2ncccn2)cc1"
group = "inactive"

[[record]]
compound = "Cc1ccc2c(c1)C(C)Cc1c(ncnc1-n1cnc3ccccc31)N2C (configuration not stated)"
group = "inactive"

[[record]]
compound = "O=C(NCCCN1CCN(CCCNC(=O)C2CCCCC2)CC1)C1CCCCC1"
group = "inactive"

[[record]]
compound = "COc1ccc(/C(=N\\O)c2cc(OC)c(OC)c(OC)c2)c(OC)c1N"
group = "inactive"

[[record]]
compound = "O=Nc1c(-c2c(O)[nH]c3ccc([N+](=O)[O-])cc23)[nH]c2ccc(O)cc12"
group = "inactive"

[[record]]
compound = "Cc1cc(NC(=O)COC(=O)c2sc3cc(F)ccc3c2Cl)no1"
group = "inactive"

[[record]]
compound = "CCNc1nc(N2CC(=O)Nc3cc(OC)ccc32)c2ccccc2n1"
group = "active"

[[record]]
compound = "CCN(CC)CCCNc1nc(C)cc(Nc2ccc3nc(C)cc(N)c3c2)n1"
group = "inactive"

[[record]]
compound = "CCN(CC)S(=O)(=O)c1ccc2[nH]c(=O)cc(C(=O)Nc3ccc(OC)cc3OC)c2c1"
group = "inactive"

[[record]]
compound = "Cc1ccc2nc(SCn3nnc4ccccc4c3=O)[nH]c2c1"
group = "inactive"

[[record]]
compound = "CCN(Cc1ccc(CN(CC)C(=O)C(Br)Br)cc1)C(=O)C(Br)Br"
group = "inactive"

[[record]]
compound = "COc1cc(Cn2c(-c3nonc3N)nc3ccccc32)ccc1C"
group = "inactive"

[[record]]
compound = "O=c1oc2c([nH]c3ccc4ccccc4c32)c2ccccc12"
group = "inactive"

[[record]]
compound = "O=C(Nc1ccc(I)cc1)c1cccc([N+](=O)[O-])c1O"
group = "inactive"

[[record]]
compound = "Cc1ccc(OCCn2c(C)nn(-c3ccc(Cl)cc3)c2=O)cc1"
group = "inactive"

[[record]]
compound = "O=C1Nc2ccc(Br)cc2C1=N/C=c1\\[nH]c(=O)/c(=C/c2ccc(Cl)cc2)s1"
group = "inactive"

[[record]]
compound = "NC(=O)NC(=O)/C=C/C(=O)OCCCl"
group = "inactive"

[[record]]
compound = "C=CCOc1cccc(/C=C/C(=O)c2sc(Nc3cccnc3)nc2C)c1"
group = "inactive"

[[record]]
compound = "CN(C)c1ncc(-c2ccc(C(F)(F)F)cc2)c(NC2CCCCCC2)n1"
group = "inactive"

[[record]]
compound = "CC(=O)/C=C/c1cc2cc(Cl)ccc2[nH]c1=O"
group = "inactive"

[[record]]
compound = "Cc1cc(C(=O)CSc2nc3ccccc3c(=O)[nH]2)c(C)n1C"
group = "inactive"

